systemUnderTest: 17β-HSD10 (Homo sapiens)
Sequence (Q99714 whole entry): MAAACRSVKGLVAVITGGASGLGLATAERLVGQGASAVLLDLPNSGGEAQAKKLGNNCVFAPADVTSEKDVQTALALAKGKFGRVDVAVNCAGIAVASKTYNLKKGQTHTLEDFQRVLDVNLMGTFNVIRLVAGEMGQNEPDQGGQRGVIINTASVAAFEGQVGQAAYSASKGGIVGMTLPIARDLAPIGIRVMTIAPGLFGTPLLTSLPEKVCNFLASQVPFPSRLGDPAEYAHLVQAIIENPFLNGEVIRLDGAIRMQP
methodNotes: recombinant 17β-HSD10 enzyme activity assay (primary NADH screen and dose response)
Format: biochemical
Set-up: made in house
reportedConditions: relative remaining activity, 25 μM compound, six independent measurements ± SEM; read-out: 17β-HSD10 activity in the presence of compound at 25 μM (Primary Screen)
metricName: remaining activity at 25 µM (%)

Record excerpt, results attached:
CN(C(=O)N(C)c1nc2ccccc2s1)c1ccc(O)c(Cl)c1 [Compound 49] :: 105
O=C(Nc1ccc(O)c(Cl)c1)NC1Cc2ccccc2C1 [Compound 72] :: 79.2
COc1ccc2nc(NC(=O)Nc3ccc(O)c(N)c3)sc2c1 [Compound 7] :: 82.5
COc1ccc2nc(NC(=O)c3ccc(O)c(Cl)c3)sc2c1 [Compound 26] :: 105
O=C(Nc1ccc(O)c(Cl)c1)Nc1ccc2ncsc2c1 [Compound 76] :: 43.8

P: COc1ccc2nc(NC(=O)NCc3ccc(O)c(Cl)c3)sc2c1 [Compound 28]
Q: O=C(Nc1ccc(O)c(Cl)c1)Nc1nc2ccc(S(=O)(=O)C(F)(F)F)cc2s1 [Compound 67]
R: COc1ccc2nc(NC(=O)Nc3ccc(O)c(I)c3)sc2c1 [Compound 6]
S: O=C(Nc1ccc(O)c(Cl)c1)Nc1nc2c(s1)CCCC2 [Compound 71]
Prompt line: Rank entries according to their remaining activity at 25 µM, from the largest number down. Provide your answer as the labels ordered per the instruction.
Response line: P, S, Q, R

1: CCOc1ccc2nc(NC(=O)Nc3ccc(O)c(Cl)c3)sc2c1 [Compound 63]
2: COc1ccc2nc(NC(=O)Nc3ccc(CO)c(Cl)c3)sc2c1 [Compound 11]
Prompt line: Given 1 and 2 , report the one with the higher recorded remaining activity at 25 µM. Your answer should be the label of the entry you select.
Response line: 2
(2: 110%, 1: 28.7%)

====

Test system: HEK293 mts17β-HSD10 cells
methodNotes: Lactate dehydrogenase (LDH) cytotoxicity assay
Format: cell-based
reportedConditions: 100 μM, 24 h
metricName: LDH Cytotoxicity with 100 μM Compound (%)
Report the figure in % without appending any unit label.

CCOc1ccc2nc(NC(=O)Nc3ccc(O)c(Cl)c3)sc2c1 [Compound 63] :: 18.05
CS(=O)(=O)c1ccc2nc(NC(=O)Nc3ccc(O)c(Cl)c3)sc2c1 [Compound 66] :: 17.51
CC(C)(C)c1ccc2nc(NC(=O)Nc3ccc(O)c(Cl)c3)sc2c1 [Compound 62] :: 64.40
CC(C)c1ccc2nc(NC(=O)Nc3ccc(O)c(Cl)c3)sc2c1 [Compound 61] :: 55.68
O=C(Nc1ccc(O)c(Cl)c1)Nc1nc2ccc(S(=O)(=O)C(F)(F)F)cc2s1 [Compound 67] :: 36.05
O=C(Nc1ccc(O)c(Cl)c1)Nc1nc2ccc(SC(F)(F)F)cc2s1 [Compound 64] :: 33.35
N#CSc1ccc2nc(NC(=O)Nc3ccc(O)c(Cl)c3)sc2c1 [Compound 65] :: 27.41
COc1ccc2nc(NC(=O)Nc3ccc(O)c(Br)c3)sc2c1 [Compound 5] :: 20.13

Prompt line: # returns recorded LDH Cytotoxicity with 100 μM Compound (system: HEK293 mts17β-HSD10 cells) for O=C(Nc1ccc(O)c(Cl)c1)Nc1ccc(O)c(Cl)c1 [Compound 78, 1,3-Bis(3-chloro-4-hydroxyphenyl)urea]
Response line: 12.41

Prompt line: Which LDH Cytotoxicity with 100 μM Compound is reported with HEK293 mts17β-HSD10 cells for this entry: COc1ccc2nc(NC(=O)Nc3ccc(O)c(I)c3)sc2c1 [Compound 6] ?
Response line: 23.97
